system: LS-1034; assay: Anticancer activity against human LS1034 cells after 72 hrs by Hoechst test; format: functional, cell-based; conditions: LS-1034, 72 h
pIC50: −log10 of the molar value.
readout label: pIC50

a. O=c1c(F)cn(C2CCCO2)c(=O)n1CO (configuration not stated)
b. CCCC(=O)OCn1c(=O)c(F)cn(C2CCCO2)c1=O (configuration not stated)
Which entry shows the lesser value of pIC50 here, a or b ? The response must carry the label of the picked entry.
a

###

assay: Anticancer activity against human astrocytes cells after 72 hrs by Hoechst test; type: ADME, cell-based, Astrocyte; conditions: Homo sapiens, Astrocyte, 72 h
readout label: IC50 (µM)

I. O=c1c(F)cn(C2CCCO2)c(=O)n1CO (centres undefined)
II. O=c1[nH]c(=O)n(C2CCCO2)cc1F (centres undefined)
From the recorded data, which exceeds the other in IC50: I or II ? The response must carry the label of the picked entry.
II
(II: 4290 µM, I: 187 µM)
